Experimental System: T1, murine CD19 protein (murine, UniProt P25918 19-287, limits assumed)
T1 construct: also called mouse CD19-his protein
T1 sequence (looked up): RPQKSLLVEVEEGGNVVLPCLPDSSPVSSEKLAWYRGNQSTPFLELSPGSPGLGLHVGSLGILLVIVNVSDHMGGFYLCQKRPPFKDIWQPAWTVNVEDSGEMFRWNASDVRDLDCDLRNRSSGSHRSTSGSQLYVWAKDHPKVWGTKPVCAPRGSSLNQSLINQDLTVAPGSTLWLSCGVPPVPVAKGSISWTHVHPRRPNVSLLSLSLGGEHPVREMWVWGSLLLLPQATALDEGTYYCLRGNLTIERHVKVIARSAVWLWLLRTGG
Protocol Notes: ELISA, murine CD19 coated
Experimental Readout: OD450 at 1.00 nM (OD450)
One number for each entry, in OD450.

Look over these answered cases.
FMC63-mIgG1 (antibody, V domains shown, Parent murine antibody; also called murine antibody FMC63) VH: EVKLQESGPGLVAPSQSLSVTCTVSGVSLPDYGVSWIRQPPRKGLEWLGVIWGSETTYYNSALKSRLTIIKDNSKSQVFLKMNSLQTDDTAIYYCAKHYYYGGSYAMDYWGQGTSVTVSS VL: DIQMTQTTSSLSASLGDRVTISCRASQDISKYLNWYQQKPDGTVKLLIYHTSRLHSGVPSRFSGSGSGTDYSLTISNLEQEDIATYFCQQGNTLPYTFGGGTKLEITR : 0.06
FMC63.26-mIgG1 (antibody, V domains shown, Humanized FMC63; also called FMC63-L2H6) VH: EVTLKESGPVLVKPTETLTLTCTVSGFSLPDYGVSWIRQPPGKALEWLAVIWGSETTYYNSALKSRLTISKDTSKSQVVLTMTNMDPVDTATYYCAKHYYYGGSYAMDYWGQGTTVTVSS VL: DIQMTQSPSSLSASVGDRVTITCRASQDISKYLNWYQQKPGGAVKLLIYHTSRLHSGVPSRFSGSGSGTDYTLTISSLQPEDFATYYCQQGNTLPYTFGGGTKVEIKR : 0.08

Okay, next one:
// FMC63.25-mIgG1 (antibody, V domains shown, Humanized FMC63; also called FMC63-L2H5) VH: EVTLKESGPVLVKPTETLTLTCTVSGFSLSDYGVSWIRQPPGKALEWLAVIWGSETTYYNSALKSRLTISKDTSKSQVVLTMTNMDPVDTATYYCAKHYYYGGSYAMDYWGQGTTVTVSS VL: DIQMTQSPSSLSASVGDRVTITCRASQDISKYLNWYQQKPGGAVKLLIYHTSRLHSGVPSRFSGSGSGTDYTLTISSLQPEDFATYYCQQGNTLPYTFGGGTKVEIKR : OD450 at 1.00 nM value = 0.08
